type: physicochemical; details: methanol, DPBF trap, 450–470 nm, relative to riboflavin
Quick list: 1O2 Quantum Yield per entry.
State the answer as a number, implicitly in %.

• O=c1[nH]c(=O)n([C@@H]2O[C@H](CO)[C@@H](O)[C@H]2O)cc1C#Cc1ccc2c3cccc4cccc(c5cccc1c52)c43 [Compound 10, reference compound] = 33.6
• CCCCc1ccc2c3cccc4c(C#Cc5cn([C@@H]6O[C@H](CO)[C@@H](O)[C@H]6O)c(=O)[nH]c5=O)ccc(c5cccc1c52)c43 [Compound 10a] = 23.1
• CCCCCCCCc1ccc2c3cccc4c(-c5ccc(C(=O)O)s5)ccc(c5cccc1c25)c43 [Compound 15b] = 72.9
• O=c1[nH]c(=O)n([C@@H]2O[C@H](CO)[C@@H](O)[C@@H]2O)cc1C#Cc1ccc2c3cccc4cccc(c5cccc1c52)c43 [Compound 9, reference compound] = 40.1

Ask: Return the recorded 1O2 Quantum Yield value; entry: CCCCCCCCCCCCc1ccc2c3cccc4c(C#Cc5cn([C@@H]6O[C@H](CO)[C@@H](O)[C@H]6O)c(=O)[nH]c5=O)ccc(c5cccc1c52)c43 [Compound 10c]
Reply: 28.7

Ask: Return the recorded 1O2 Quantum Yield value; entry: O=C(O)c1ccc(-c2ccc3c4cccc5cccc(c6cccc2c63)c54)s1 [Compound 15, reference compound]
Reply: 73.2
